B1: ESRRA (parent)
chain: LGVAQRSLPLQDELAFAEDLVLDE

variants of: B1; experiment: protein stability index of a GFP-peptide fusion (GPS, HEK-293T) (PSI 1-6); higher = more stable; settings: c terminus: a fixed tail appended;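 further: lentivirally expressed fusions sorted by FACS into six bins by GFP to DsRed ratio, PSI derived from sequencing read proportions per bin multiplied by bin number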
Note that class boundaries on protein stability index are low (below 3), mid (3 to below 4), high (4 or more)

Past entries and their recorded results:
> print(dat)
   variant.identifier  assigned.category
1                A15V               high
2                L10G               high
3                 L1M                low

Please let me know in which category the item F16S belongs.
high

Please let me know in which category the item L22T belongs.
high

Please let me know in which category the item L10I belongs.
high

Please let me know in which category the item E18A belongs.
high

Please let me know in which category the item E18D belongs.
high

Please let me know in which category the item D23H belongs.
low

Please let me know in which category the item V3Y belongs.
low
